Each entry below lists one item and its recorded EC50, cAMP accumulation assay; Transient cell line, n = 2 value.
# measured target: GLP-1 acceptor (UniProt P43220 24-463, limits assumed)
# method notes: cell-based or functional assay
Number only, in pM; omit the unit.

binder="HGEGTFTSDVSSYLEEQAAKEFIAWLVRGRG [GLP#8]" readout_value=1.95

Exam item: Name the reported EC50, cAMP accumulation assay; Transient cell line, n = 2 value associated with the binder HGEGTFTSDVSEYLEKQAAKEFIAWLVNGR [GLP#3]
Marked response: 2.25

Exam item: Item HSEGTFTSDVSEYLEKQAAKEFIAWLVKGR [GLP#6] has what recorded EC50, cAMP accumulation assay; Transient cell line, n = 2?
Marked response: 1.5

Exam item: Suppose we examine the binder HGEGTFTSDVSEYLEKQAAQEFIAWLVKGR [GLP#10] ; what EC50, cAMP accumulation assay; Transient cell line, n = 2 value has been reported?
Marked response: 8.26

Reference for the values: patent US20240066137A1
